# Test system: CP237
# TEST: qHTS profiling for inhibitors of Plasmodium falciparum proliferation (AID 504749); note: nearly all actives have a fitted effect of over 60% in size
# TEST_PARAMETERS: P. falciparum in erythrocytes, SYBR Green DNA, 72 h; series mostly up to 28.7 µM
Records with an inconclusive call do not appear. Activity calls are given as the source filed them. Calls come from the whole dose curve; as a rule, active = well fitted inhibition curve with a large enough effect; inconclusive = small, poorly fitted or top-dose-only effect; inactive = flat fitted curve, though single readings scatter.
Labels: Y = active, N = inactive

{"columns": ["COMPOUND", "CLASS_ASSIGNMENT"],
 "data": [
  ["OB(O)O", "N"],
  ["CC(C)Cc1ccc([C@@H](C)C(=O)NS(C)(=O)=O)cc1", "N"],
  ["OC[C@H]1O[C@@H]2O[C@H]3[C@H](O)[C@@H](O)[C@@H](O[C@H]4[C@H](O)[C@@H](O)[C@@H](O[C@H]5[C@H](O)[C@@H](O)[C@@H](O[C@H]6[C@H](O)[C@@H](O)[C@@H](O[C@H]7[C@H](O)[C@@H](O)[C@@H](O[C@H]1[C@H](O)[C@H]2O)O[C@@H]7CO)O[C@@H]6CO)O[C@@H]5CO)O[C@@H]4CO)O[C@@H]3CO", "N"],
  ["CC(C)O", "N"],
  ["C=CC(=O)O", "N"],
  ["O=C(OCc1ccccc1)c1cccnc1", "N"],
  ["Cc1cc(C)c(NC(=O)C[C@H](CC(=O)O)c2cccc3ccccc23)c(C(=O)N2CCC3(CCCC3)CC2)c1", "N"],
  ["COc1ccc2nc(NC(=O)Nc3ccccc3)sc2c1", "N"],
  ["CCCCCCCCCC(=O)NO", "N"],
  ["N[C@H](CC(=O)O)C(=O)O", "N"],
  ["CC(C)[C@@H](N)C(=O)O", "N"],
  ["CC1CCC(NC(=O)N(CCCl)N=O)CC1 (stereo unspecified)", "N"],
  ["O=P(O)(O)OP(=O)(O)OP(=O)(O)O", "N"],
  ["OCCOCCOCCO", "N"],
  ["Cc1cc(C(=O)NCCc2ccc(S(=O)(=O)NC(=O)NN3CCCCCC3)cc2)no1", "N"],
  ["CC1=C(/C=C/C(C)=C/C=C/C(C)=C/C(=O)Oc2c(C)c(C)c3c(c2C)CC[C@@](C)(CCC[C@H](C)CCC[C@H](C)CCCC(C)C)O3)C(C)(C)CCC1", "N"],
  ["C[C@]12CC[C@@H]3c4ccc(OC(=O)c5ccccc5)cc4CC[C@H]3[C@@H]1CC[C@@H]2O", "Y"],
  ["COc1ccc(C(=O)CCC(=O)O)c2ccccc12", "N"],
  ["CC(=O)Nc1ccc(OC(=O)c2ccccc2O)cc1", "N"],
  ["O=C1c2ccccc2C(=O)C1c1ccc(Cl)cc1", "N"],
  ["Nc1ncnc2c1ncn2[C@H]1CC[C@@H](CO)O1", "N"],
  ["CCCCCCCCCCCC(=O)OCC(O)CO (stereo unspecified)", "N"],
  ["Nc1ncnc2c1ncn2CCOCP(=O)(O)O", "N"],
  ["Cc1cccc(Nc2ncccc2C(=O)O)c1C", "N"],
  ["CC(C)(C)c1ccc2c(S(=O)(=O)O)c(C(C)(C)C)ccc2c1", "N"],
  ["CC1C(=O)CC2C3(C)CCC2(C(C)C(=O)O)C(=O)C13 (stereo unspecified)", "N"],
  ["CCCCO", "N"],
  ["CCC(C)[C@@H](N)C(=O)O (stereo partly specified)", "N"],
  ["O=P(O)(O)OC[C@H](O)CO", "N"],
  ["COC(=O)c1ccccc1O", "N"],
  ["FC(F)(F)C(F)(F)C(F)(F)C(F)(F)C(F)(F)F", "N"],
  ["CO", "N"],
  ["COc1cc2c(cc1OC)[C@@H](Cc1cc(OC)c(OC)c(OC)c1)[N+](C)(CCCOC(=O)CC/C=C/CCC(=O)OCCC[N+]1(C)CCc3cc(OC)c(OC)cc3[C@H]1Cc1cc(OC)c(OC)c(OC)c1)CC2 (stereo partly specified)", "N"],
  ["NC(N)=NCC1COc2ccccc2O1 (stereo unspecified)", "N"],
  ["CCOc1ccc(S(=O)(=O)O)c2cccnc12", "N"],
  ["Cn1cc(NC(=O)c2cc(NC(=O)c3cc(NC=O)cn3C)cn2C)cc1C(=O)NCCC(=N)N", "Y"],
  ["O=[N+]([O-])c1c(Cl)cccc1-c1c[nH]cc1Cl", "N"],
  ["O=C(O)Cc1cc(I)c(Oc2ccc(O)c(I)c2)c(I)c1", "N"],
  ["Cc1cccc(C)c1NC(=O)NC1=CCCN1C", "N"],
  ["O=C1c2ccccc2C(=O)C1c1ccc(F)cc1", "N"],
  ["O=C1CCC(c2ccccc2)(C2CCN(Cc3ccccc3)CC2)C(=O)N1 (stereo unspecified)", "Y"],
  ["Cc1ccc(S(=O)(=O)NCl)cc1", "N"],
  ["Cc1cc(-c2ccc(N=Nc3ccc4c(S(=O)(=O)O)cc(S(=O)(=O)O)c(N)c4c3O)c(C)c2)ccc1N=Nc1ccc2c(S(=O)(=O)O)cc(S(=O)(=O)O)c(N)c2c1O", "N"],
  ["Cc1nc(NS(=O)(=O)c2ccc(N)cc2)nc(C)c1Br", "N"],
  ["CC1(C)S[C@@H]2[C@H](NC(=O)C3(N)CCCCC3)C(=O)N2[C@H]1C(=O)O", "N"],
  ["CCCCCCCCCCCCCCCCCC(=O)OC[C@@H](O)[C@H]1OC[C@H](O)[C@H]1O", "N"]
]}
